Source of measurements: ChEMBL document CHEMBL1201862

Would you kindly list GI50 for each of these compounds?
system: Malme-3M; experiment: NCI tumour cell line growth inhibition, 48 h
Calls of active or inactive are those of the source. Rule as the data show it: active = GI50 up to about 1.1 µM and inactive = higher.

Q. Please give the measured GI50 for this compound: "Nc1ncnc2c1N=CN(Oc1ccccc1)N2"
A. 18.3 µM (inactive)

Q. Please give the measured GI50 for this compound: "O=C1CCCC/C1=C1\C(=O)Nc2cc(F)ccc21"
A. > 100 µM (inactive)

Q. Please give the measured GI50 for this compound: "N#CCCN(c1ccc(/C=N/c2ccccc2Cl)cc1)S(=O)(=O)c1ccccc1"
A. > 100 µM (inactive)

Q. Please give the measured GI50 for this compound: "O=S(=O)(O)c1cc(/N=N/c2cc(S(=O)(=O)O)c3ccccc3c2O)ccc1/C=C/c1ccc(/N=N/c2cc(S(=O)(=O)O)c3ccccc3c2O)cc1S(=O)(=O)O"
A. > 333 µM (inactive)

Q. Please give the measured GI50 for this compound: O=[N+]([O-])c1ccc(C2NC(=S)NC3c4cc([N+](=O)[O-])ccc4CCCC23)cc1 (stereo not given)
A. > 100 µM (inactive)

Q. Please give the measured GI50 for this compound: CCC1(O)C(=O)OCc2c1cc1n(c2=O)Cc2cc3cc(N)ccc3nc2-1 (stereo not given)
A. 0.0299 µM (active)

Q. Please give the measured GI50 for this compound: "Cc1cccc(Nc2cnc(N)nc2N)c1"
A. > 100 µM (inactive)

Q. Please give the measured GI50 for this compound: N=C(N)NCCCC(NCc1c2ccccc2nc2ccccc12)C(=O)O (stereo not given)
A. > 73.1 µM (inactive)

Q. Please give the measured GI50 for this compound: "COc1cccc(-c2cc(O)c3cc(N4CCN(C)CC4)ccc3n2)c1"
A. 0.641 µM (active)

Q. Please give the measured GI50 for this compound: "CCCCNC(=O)c1cc(S(=O)(=O)n2ccnc2O)c(SC)cc1Cl"
A. > 100 µM (inactive)

* * *

tested on: U-251; test: NCI tumour cell line growth inhibition, 48 h
Calls of active or inactive are those of the source. Cut-off read from the data, not from the text of the source: active = GI50 up to about 1.1 µM and inactive = higher. Residues, ends and D or L forms follow the SMILES beside them. Groups on a side chain read outwards from the residue. *: point of attachment. Cbz = O=C(OCc1ccccc1)*; Boc = CC(C)(C)OC(=O)*
Property: GI50

Q. Please give the measured GI50 for this molecule: CC(C)(C)OC(=O)NC(CCCCNC(=O)CNC(=O)OCc1ccccc1)C(=O)NC(CCCCNC(=O)CNC(=O)OCc1ccccc1)C(=O)NC(CCCCNC(=O)CNC(=O)OCc1ccccc1)C(=O)NC(CCCCNC(=O)CNC(=O)OCc1ccccc1)C(=O)O (stereo not given) (Boc-K([Gly-Cbz])K([Gly-Cbz])K([Gly-Cbz])K([Gly-Cbz])-OH; configuration not given here)
A. > 100 µM (inactive)

Q. Please give the measured GI50 for this molecule: COc1ccc(CC2NCCc3cc(OC)c(OC)cc32)cc1 (stereo not given)
A. > 100 µM (inactive)

Q. Please give the measured GI50 for this molecule: COC1CC(n2cnc3c(N)ncnc32)OC1CO (stereo not given)
A. > 100 µM (inactive)

Q. Please give the measured GI50 for this molecule: COc1cc([N+](=O)[O-])cc2c1NC(=O)C2(C)SC (stereo not given)
A. > 100 µM (inactive)

Q. Please give the measured GI50 for this molecule: "CCN(CC)C(=O)c1cccc2c(OC)ccc(OC)c12"
A. > 100 µM (inactive)

Q. Please give the measured GI50 for this molecule: "CCNC(=S)NNC(=O)c1nsc2ccccc12"
A. 94.2 µM (inactive)

Q. Please give the measured GI50 for this molecule: COc1cccc(C2c3cc4c(cc3OC(C)(N3CCCC3)C2C)OCO4)c1O (stereo not given)
A. 4.35 µM (inactive)

Q. Please give the measured GI50 for this molecule: "Cc1cc2c(C=O)n[nH]c2c(C#N)c1C"
A. 60.3 µM (inactive)

Q. Please give the measured GI50 for this molecule: "CC(C)(C)OC(=O)N/N=C(/N)Cc1ccc(Cl)cc1"
A. > 100 µM (inactive)

Q. Please give the measured GI50 for this molecule: "CC(=O)NS(=O)(=O)c1ccc(NC(=O)COC(=O)c2cccc3c(=O)c4ccccc4[nH]c23)cc1"
A. > 100 µM (inactive)

Q. Please give the measured GI50 for this molecule: "Clc1cc(Cl)c2cc3cccc[n+]3cc2c1Cl"
A. 16.7 µM (inactive)

Q. Please give the measured GI50 for this molecule: "Nc1ccc(C(=O)/C=C/c2ccccc2O)cc1"
A. > 100 µM (inactive)

Q. Please give the measured GI50 for this molecule: "CN[C@@H](C)[C@@H](N)c1ccccc1"
A. > 100 µM (inactive)

Q. Please give the measured GI50 for this molecule: "O=C(NC(=S)Nc1ccc(Br)cc1)c1ccc2c(c1)Sc1ccccc1O2"
A. 37 µM (inactive)

Q. Please give the measured GI50 for this molecule: O=C(CC(=O)C1CCOC1=O)C(=O)Nc1ccc(Cl)cc1 (stereo not given)
A. > 100 µM (inactive)

Q. Please give the measured GI50 for this molecule: CC12CCC3c4ccc(O)cc4CCC3C1C/C(=N\O)C2O (stereo not given)
A. > 100 µM (inactive)

Q. Please give the measured GI50 for this molecule: CCOC(=O)c1cc(C2CCN(Cc3ccccc3)C2=O)c(C(=O)C(=[N+]=[N-])C(C)=O)[nH]1 (stereo not given)
A. > 100 µM (inactive)

Q. Please give the measured GI50 for this molecule: "O=C(n1c(=O)n(-c2ccc(Cl)cc2)c(=O)n1C(=O)C(Cl)(Cl)Cl)C(Cl)(Cl)Cl"
A. > 100 µM (inactive)

Q. Please give the measured GI50 for this molecule: "Nc1nc2ccc3ccccc3c2[nH]1"
A. > 10 µM (inactive)

Q. Please give the measured GI50 for this molecule: "COc1cc(-c2cc(=O)c3c(OC)c(OC)c(OC)c(OC)c3o2)c(OC)c(OC)c1OC"
A. 48.1 µM (inactive)
